- System: NCI-H1437
- test-summary: relative viability (nuclei count vs DMSO), 5 days (fraction); higher = more cells survive
- experimental-setup: first compound 2.53 µM
Label yes (1) when relative viability is strictly below 0.3; at or above that, label no (0).

compound	label-value
O=c1cc(-c2cccc3c2Sc2ccccc2S3)oc(N2CCOCC2)c1 + COc1cccc2cc(-c3nc([C@H]4CC[C@H](C(=O)O)CC4)n4ncnc(N)c34)[nH]c12 [OSI-027] (partner 0.5 µM)	no (0)
O=c1cc(-c2cccc3c2Sc2ccccc2S3)oc(N2CCOCC2)c1 + N=C(N)NC(=N)NCCc1ccccc1 [Phenformin] (partner 250 µM)	yes (1)
COc1nc(C)cnc1NS(=O)(=O)c1cccnc1-c1ccc(-c2nnco2)cc1 [Zibotentan] + N=C(N)NC(=N)NCCc1ccccc1 [Phenformin] (partner 250 µM)	no (0)
O=c1cc(-c2cccc3c2Sc2ccccc2S3)oc(N2CCOCC2)c1 + CC1(C)CCC(c2ccc(Cl)cc2)=C(CN2CCN(c3ccc(C(=O)NS(=O)(=O)c4ccc(N[C@H](CCN5CCOCC5)CSc5ccccc5)c(S(=O)(=O)C(F)(F)F)c4)cc3)CC2)C1 [Navitoclax] (partner 0.5 µM)	no (0)

Regarding COc1nc(C)cnc1NS(=O)(=O)c1cccnc1-c1ccc(-c2nnco2)cc1 [Zibotentan] + C[C@]1(O)C[C@@H](c2nc(-c3ccc4ccc(-c5ccccc5)nc4c3)c3c(N)nccn32)C1 [Linsitinib] (partner 1 µM) , kindly confirm whether its relative viability is beneath 0.3. no (0)

* * *

Recorded relative viability for the following molecules
- Tested on: NCI-H1395
- test-summary: relative viability (nuclei count vs DMSO), 5 days (fraction); higher = more cells survive
- experimental-setup: first compound 0.03162 µM
Would you mind answering with just the numeric figure?

Study these solved cases before continuing.
molecule	relative viability
O=c1cc(N2CCOCC2)oc2c(-c3cccc4c3sc3ccccc34)cccc12 + Cc1nc(Nc2ncc(C(=O)Nc3c(C)cccc3Cl)s2)cc(N2CCN(CCO)CC2)n1 [Dasatinib] (partner 0.075 µM)	0.393
O=c1cc(N2CCOCC2)oc2c(-c3cccc4c3sc3ccccc34)cccc12 + Nc1ncn([C@H]2C[C@H](O)[C@@H](CO)O2)c(=O)n1 [Decitabine] (partner 2 µM)	0.772

Now for a further molecule.
# relative viability lookup, item CCN(CC)CCCCNc1ncc2cc(-c3cc(OC)cc(OC)c3)c(NC(=O)NC(C)(C)C)nc2n1 + CC1(C)CCC(c2ccc(Cl)cc2)=C(CN2CCN(c3ccc(C(=O)NS(=O)(=O)c4ccc(N[C@H](CCN5CCOCC5)CSc5ccccc5)c(S(=O)(=O)C(F)(F)F)c4)cc3)CC2)C1 [Navitoclax] (partner 0.5 µM) 1.1

* * *

Entries and their relative viability values follow.
- System: NCI-H358
- test-summary: relative viability (nuclei count vs DMSO), 5 days (fraction); higher = more cells survive
- experimental-setup: first compound 0.03162 µM
Reply: number alone, nothing else.

compound	target-or-system	relative viability
O=c1cc(N2CCOCC2)oc2c(-c3cccc4c3sc3ccccc34)cccc12 + CS(=O)(=O)CCNCc1ccc(-c2ccc3ncnc(Nc4ccc(OCc5cccc(F)c5)c(Cl)c4)c3c2)o1 [Lapatinib] (partner 2 µM)	NCI-H358	0.478

Please turn your attention to the following entry.
Form field: reported relative viability of CCN(CC)CCCCNc1ncc2cc(-c3cc(OC)cc(OC)c3)c(NC(=O)NC(C)(C)C)nc2n1 + CC(=O)Nc1cccc(-n2c(=O)n(C3CC3)c(=O)c3c(Nc4ccc(I)cc4F)n(C)c(=O)c(C)c32)c1 [Trametinib] (partner 0.02 µM) 0.15
